# System: E. coli DH10B pBCSK(−) producing VIM-2 (228R)
# ASSAY_COMMENT: MIC by agar dilution, E. coli DH10B pBCSK
# Assay type: cell-based
# PARTICULARS: Escherichia coli, MHA
# reported MIC; entries follow
All answers are understood in µg/mL, so give the number only.

Query: Which MIC is reported for this compound? C[C@@H](O)[C@H]1C(=O)N2C(C(=O)O)=C(SCCN=CN)C[C@H]12 [imipenem]
Reply: 0.5

Query: Which MIC is reported for this compound? CC(=O)OCC1=C(C(=O)O)N2C(=O)[C@@H](NC(=O)Cc3cccs3)[C@H]2SC1 [cephalothin]
Reply: 256

Query: Which MIC is reported for this compound? CC1(C)S[C@@H]2[C@H](NC(=O)[C@H](N)c3ccccc3)C(=O)N2[C@H]1C(=O)O [ampicillin]
Reply: 512

Query: Which MIC is reported for this compound? CO/N=C(\C(=O)N[C@@H]1C(=O)N2C(C(=O)O)=C(COC(C)=O)CS[C@H]12)c1csc(N)n1 [cefotaxime]
Reply: 8
